- Assay text: Screening of beta-hydroxy carboxylate analogs for CEST contrast (Table 4A)
- Run conditions: Concentration 10 mM
Quantity name: Signal (ppm)

>  <Record smiles>
COC(=O)c1ccccc1O

>  <Value>
None

$$$$
>  <Record smiles>
COC(=O)c1cc([N+](=O)[O-])ccc1O

>  <Value>
None

$$$$
>  <Record smiles>
Oc1ccccc1-c1nnn[nH]1

>  <Value>
None

$$$$

* * *

- Run conditions: Table 4; 10 mM, pH 7.3-7.4, 37° C.
Quantity name: kex (s⁻¹)

>  <Record smiles>
O=Cc1cccc(C(=O)O)c1O

>  <Quantity name>
kex

>  <Unit text>
s⁻¹

>  <Value>
510

$$$$
>  <Record smiles>
O=C(O)c1cc(Br)cc(Br)c1O

>  <Quantity name>
kex

>  <Unit text>
s⁻¹

>  <Value>
580

$$$$
>  <Record smiles>
Nc1cccc(C(=O)O)c1O

>  <Quantity name>
kex

>  <Unit text>
s⁻¹

>  <Value>
410

$$$$
>  <Record smiles>
O=C(O)c1cccc(F)c1O

>  <Quantity name>
kex

>  <Unit text>
s⁻¹

>  <Value>
750

$$$$
>  <Record smiles>
O=C(O)c1cc(Cl)cc(Cl)c1O

>  <Quantity name>
kex

>  <Unit text>
s⁻¹

>  <Value>
1070

$$$$
